Each entry below carries its recorded IC50.
System: H1N1 (influenza A/New Caledonia/20/99)
Assay: microbe, parasite or virus in culture
Assay type: cell-based
Conditions: Influenza A virus, H1N1, A549, 48 h
measured-parameter: IC50 (µM)

molecule: O=C(Nc1ccc(Cl)cc1)c1c(NC(=O)C2CCCCC2C(=O)O)sc2c1CCC2 (stereo not shown) [Compound 49]
u: µM
value-reported: 12.2
--
molecule: O=C(Nc1ccc(Cl)cc1)c1c(N2C(=O)C3CCCCC3C2=O)sc2c1CCC2 (stereo not shown) [Compound 54]
u: µM
value-reported: 5.98
--
molecule: O=C(Nc1ccc(Cl)cc1)c1c(NC(=O)C2CCC(C(=O)O)CC2)sc2c1CCC2 (single isomer, unassigned) [Compound 97]
u: µM
value-reported: 14.7
--
molecule: Cc1cccc(NC(=O)c2c(NC(=O)C3CCCCC3C(=O)O)sc3c2CCC3)c1 (stereo not shown) [Compound 58]
u: µM
value-reported: 27.6
--
molecule: CONC(=O)[C@@H]1CCCC[C@@H]1C(=O)Nc1sc2c(c1C(=O)Nc1ccc(Cl)cc1)CCC2 (stereo in doubt) [Compound 88]
u: µM
value-reported: 8.4
--
molecule: NS(=O)(=O)N1CCCC(C(=O)Nc2sc3c(c2C(=O)Nc2ccc(Cl)cc2)CCC3)C1 (stereo not shown) [Compound 83]
u: µM
value-reported: 5.05
--
molecule: O=C(Nc1ccc(Cl)cc1)c1c(NC(=O)C2CCCC(C(=O)O)C2)sc2c1CCC2 (stereo not shown) [Compound 99]
u: µM
value-reported: 16.6
--
molecule: O=C(Nc1ccc(Cl)cc1)c1c(NC(=O)C2CCCCC2C(=O)O)sc2c1CCOC2 (stereo not shown) [Compound 37]
u: µM
value-reported: 43.4
--
molecule: CCCCCNC(=O)c1c(NC(=O)C2CCCCC2C(=O)O)sc2c1CCC2 (stereo not shown) [Compound 22]
u: µM
value-reported: 20.3
--
molecule: Cc1cc(Cl)ccc1NC(=O)c1c(NC(=O)C2CCCCC2C(=O)O)sc2c1CCC2 (stereo not shown) [Compound 7]
u: µM
value-reported: 10.1
--
molecule: CO[C@H]1CC[C@H](NC(=O)c2c(NC(=O)C3CCCCC3C(=O)O)sc3c2CCC3)CC1 (stereo partly shown) [Compound 8]
u: µM
value-reported: 27.4
--
molecule: O=C(Nc1cccc(Cl)c1)c1c(NC(=O)C2CCCCC2C(=O)O)sc2c1CCC2 (stereo not shown) [Compound 17]
u: µM
value-reported: 4.88
--
molecule: CC(C)(CC(=O)O)CC(=O)Nc1sc2c(c1C(=O)Nc1ccc(Cl)cc1)CCC2 [Compound 47]
u: µM
value-reported: 22.7
--
molecule: O=C(Cc1cnccn1)Nc1sc2c(c1C(=O)Nc1ccc(Cl)cc1)CCC2 [Compound 78]
u: µM
value-reported: 1
--
molecule: CS(=O)(=O)N1CCCC(C(=O)Nc2sc3c(c2C(=O)Nc2ccc(Cl)cc2)CCC3)C1 (stereo not shown) [Compound 95]
u: µM
value-reported: 13.7
--
molecule: O=C(Nc1ccc(Cl)cc1)c1c(NC(=O)C2CCCCC2CO)sc2c1CCC2 (stereo not shown) [Compound 56]
u: µM
value-reported: 24

###

System: H1N1 (influenza A/New Caledonia/20/99)
Experiment: microbe, parasite or virus in culture
Assay type: cell-based
Conditions: Influenza A virus, H1N1, A549, 48 h

molecule: Cc1ccc(NC(=O)c2c(NC(=O)C3CCCCC3C(=O)O)sc3c2CCC3)cc1Cl (centres unmarked) [Compound 14]
assayed-target: H1N1 (influenza A/New Caledonia/20/99)
u: µM
IC50: 4.78

molecule: O=C(Nc1ccc(C(F)(F)F)nc1)c1c(NC(=O)C2CCCCC2C(=O)O)sc2c1CCC2 (centres unmarked) [Compound 32]
assayed-target: H1N1 (influenza A/New Caledonia/20/99)
u: µM
IC50: 22

molecule: Cc1cccc(NC(=O)c2c(NC(=O)C3CCCCC3C(=O)O)sc3c2CCCC3)c1 (centres unmarked) [Compound 69]
assayed-target: H1N1 (influenza A/New Caledonia/20/99)
u: µM
IC50: 13.9

molecule: O=C(Nc1ccc(CCO)cc1)c1c(NC(=O)C2CCCCC2C(=O)O)sc2c1CCC2 (centres unmarked) [Compound 9]
assayed-target: H1N1 (influenza A/New Caledonia/20/99)
u: µM
IC50: 21.1

molecule: O=C(CC1CCOCC1)Nc1sc2c(c1C(=O)Nc1ccc(Cl)cc1)CCC2 [Compound 81]
assayed-target: H1N1 (influenza A/New Caledonia/20/99)
u: µM
IC50: 3.9

molecule: O=C(Nc1ccc(Cl)nc1)c1c(NC(=O)C2CCCCC2C(=O)O)sc2c1CCC2 (centres unmarked) [Compound 2]
assayed-target: H1N1 (influenza A/New Caledonia/20/99)
u: µM
IC50: 18

molecule: O=C(O)CC1(CC(=O)Nc2sc3c(c2C(=O)Nc2ccc(Cl)cc2)CCC3)CCCC1 [Compound 45]
assayed-target: H1N1 (influenza A/New Caledonia/20/99)
u: µM
IC50: 8.1

molecule: CC(C)c1cc(C(=O)Nc2ccccc2)c(NC(=O)C2CCCCC2C(=O)O)s1 (centres unmarked) [Compound 72]
assayed-target: H1N1 (influenza A/New Caledonia/20/99)
u: µM
IC50: 9.92
